Recorded EC50 of cell killing, A431 cells, anti-kappa-ETA' assay values for a group of binders are listed next.
Target: membrane-bound tissue factor (TF) on cells (human, UniProt P13726 33-295)
Test: cell-based or functional assay
# unit: ng/mL | format: bare number

Example entries and their recorded answers appear below.
>  <binder>
HuMab-TF-044 (antibody, V domains shown) VH: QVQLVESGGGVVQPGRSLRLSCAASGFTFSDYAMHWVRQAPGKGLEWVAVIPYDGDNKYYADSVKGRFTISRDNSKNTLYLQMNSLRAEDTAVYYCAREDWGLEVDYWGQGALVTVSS VL: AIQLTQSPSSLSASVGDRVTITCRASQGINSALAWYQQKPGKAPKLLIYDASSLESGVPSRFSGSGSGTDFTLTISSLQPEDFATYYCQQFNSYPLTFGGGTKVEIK

>  <unit>
ng/mL

>  <reported>
98

$$$$
>  <binder>
Anti-TF HuMab 011 (antibody, IgG1, V domains shown, full length, fully human monoclonal IgG1,kappa; also called HuMab-TF-011) VH: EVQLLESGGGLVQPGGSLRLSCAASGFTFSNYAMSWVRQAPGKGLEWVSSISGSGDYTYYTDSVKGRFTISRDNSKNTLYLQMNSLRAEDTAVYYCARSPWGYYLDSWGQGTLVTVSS VL: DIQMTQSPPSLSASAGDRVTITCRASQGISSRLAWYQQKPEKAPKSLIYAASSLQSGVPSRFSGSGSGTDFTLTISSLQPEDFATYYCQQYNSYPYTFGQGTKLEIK

>  <unit>
ng/mL

>  <reported>
0.39

$$$$
>  <binder>
HuMab-TF-013 (antibody, V domains shown) VH: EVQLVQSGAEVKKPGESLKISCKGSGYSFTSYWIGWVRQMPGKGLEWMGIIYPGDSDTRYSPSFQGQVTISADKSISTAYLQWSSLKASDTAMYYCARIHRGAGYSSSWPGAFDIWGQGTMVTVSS VL: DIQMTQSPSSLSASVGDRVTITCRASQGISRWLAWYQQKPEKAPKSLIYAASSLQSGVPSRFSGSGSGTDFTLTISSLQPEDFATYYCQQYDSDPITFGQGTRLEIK

>  <unit>
ng/mL

>  <reported>
20

$$$$

EC50 of cell killing, A431 cells, anti-kappa-ETA' assay recorded for this binder, Anti-TF HuMab 098 (antibody, IgG1, V domains shown, full length, fully human monoclonal IgG1,kappa; also called HuMab-TF-098) VH: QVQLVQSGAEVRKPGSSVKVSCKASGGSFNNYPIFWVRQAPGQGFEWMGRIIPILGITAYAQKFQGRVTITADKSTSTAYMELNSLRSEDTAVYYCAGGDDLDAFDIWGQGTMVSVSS VL: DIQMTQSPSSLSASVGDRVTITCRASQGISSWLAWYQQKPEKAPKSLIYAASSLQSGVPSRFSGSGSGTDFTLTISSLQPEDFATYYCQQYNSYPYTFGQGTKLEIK , is 0.09
